Test system: KATO III (FGFR2 amp)
test-method-notes: In vitro growth inhibition of KATO III tumor cells (MTT/CCK8)
Format: cell-based, Human
particulars: Homo sapiens, KATO III; in vitro growth inhibition (or induction of apoptosis), cells cultured 3 to 5 days, MTT (CCK8); read-out: IC50 KATO III (FGFR2 amp)
Excerpt: Tumor cell lines are an effective model for studying in vitro tumor growth inhibition. In the present invention, a representative tumor cell line was selected to determine the cell growth inhibition activity of the present compound. All cell lines used were from ATCC, DSMZ, and cell banks of the Chinese Academy of Sciences. […] Adherent cells were digested with 0.25% trypsin-EDTA (Gibco). […] The supernatant was discarded and the cells were counted. […]
pIC50: −log10 of the molar value.
readout-label: pIC50

compound="COc1cc(Oc2ccnc3cc(OC)c(C(N)=O)cc23)ccc1NC(=O)n1nc(C(C)(C)C)cc1N [Compound 73]" measurement_qualifier== observed_value=6.58
compound="CC(C)Oc1cc2nccc(Oc3ccc(NC(=O)Nc4cc(C(C)(C)C)n[nH]4)c(Cl)c3)c2cc1C(N)=O [Compound 43]" measurement_qualifier== observed_value=8.24
compound="COCCOc1cc2nccc(Oc3ccc(NC(=O)Nc4cc(C(C)(C)C)nn4CCN(C)C)cc3)c2cc1NC(C)=O [Compound 119]" measurement_qualifier== observed_value=8.16
compound="CC(C)(C)c1cc(NC(=O)Nc2ccc(Oc3ccnc4cc(OCCN5CCCCC5)c(C(N)=O)cc34)cc2Cl)[nH]n1 [Compound 84]" measurement_qualifier== observed_value=8.22
compound="COc1cc2nccc(Oc3ccc(NC(=O)Nc4cc(C(C)(C)C)on4)c(Cl)c3)c2cc1[N+](=O)[O-] [Compound 18]" measurement_qualifier== observed_value=8.17
compound="COc1cc2nccc(Oc3ccc(NC(=O)Nc4cc(C(C)(C)C)nn4CCN4CCOCC4)c(Cl)c3)c2cc1C(N)=O [Compound 31]" measurement_qualifier== observed_value=9.92
compound="CC(C)(C)c1cc(NC(=O)Nc2ccc(Oc3ccnc4cc(OCCN5CCOCC5)c(C(N)=O)cc34)c(Cl)c2Cl)[nH]n1 [Compound 94]" measurement_qualifier== observed_value=9.05
compound="CCOc1cc2ncc(C#N)c(Oc3ccc(NC(=O)Nc4cc(C(C)(C)C)n[nH]4)c(Cl)c3)c2cc1NC(C)=O [Compound 68]" measurement_qualifier=< observed_value=6.00
compound="CNC(=O)c1cc2c(Oc3ccc(NC(=O)N4CCN(C)CC4)c(Cl)c3Cl)ccnc2cc1OCCOC [Compound 75]" measurement_qualifier=< observed_value=6.00
compound="COCCNC(=O)c1cc2c(Oc3ccc(NC(=O)Nc4cc(C(C)(C)C)on4)c(Cl)c3)ccnc2cc1OC [Compound 17]" measurement_qualifier== observed_value=8.41
compound="COc1cc2nccc(Oc3ccc(NC(=O)Nc4cc(C(C)(C)C)nn4CCO)c(Cl)c3)c2cc1C(N)=O [Compound 32]" measurement_qualifier== observed_value=9.74
compound="CCc1cc(NC(=O)Nc2cc(C(C)(C)C)n[nH]2)ccc1Oc1ccnc2cc(OC)c(C(N)=O)cc12 [Compound 106]" measurement_qualifier== observed_value=7.33

----------
System: H1703 (PDGFRa amp)
test-method-notes: In vitro growth inhibition of H1703 tumor cells (MTT/CCK8)
Format: cell-based, Human
particulars: Homo sapiens, NCI-H1703; in vitro growth inhibition (or induction of apoptosis), cells cultured 3 to 5 days, MTT (CCK8); read-out: IC50 H1703 (PDGFRa amp)
readout-label: IC50 (nM)

compound="COc1cc2nccc(Oc3ccc(NC(=O)Nc4cc(C(C)(C)C)n[nH]4)c(C)c3)c2cc1C(N)=O [Compound 34]" readout_units=nM measurement_qualifier== observed_value=88.1
compound="COc1cc2nccc(Oc3ccc(N(C)C(=O)Nc4cc(C(C)(C)C)on4)cc3)c2cc1C(N)=O [Compound 11]" readout_units=nM measurement_qualifier== observed_value=20.4
compound="CNC(=O)c1cc2c(Oc3ccc(NC(=O)N4CCN(C)CC4)c(Cl)c3Cl)ccnc2cc1OCCOC [Compound 75]" readout_units=nM measurement_qualifier=> observed_value=1000
compound="CC(C)(C)c1cc(NC(=O)Nc2ccc(Oc3ccnc4c(C(F)(F)F)cccc34)cc2Cl)no1 [Compound 114]" readout_units=nM measurement_qualifier=> observed_value=1000
compound="CNC(=O)c1cc2c(Oc3ccc(NC(=O)Nc4cc(C(C)(C)C)n[nH]4)c(Cl)c3)ccnc2cc1OCCOC [Compound 58]" readout_units=nM measurement_qualifier== observed_value=14.8
compound="CCC(=O)N1CCC(NC(=O)Nc2ccc(Oc3ccnc4cc(OC)c(C(N)=O)cc34)cc2Cl)C1 (stereo not shown) [Compound 69]" readout_units=nM measurement_qualifier=> observed_value=1000
compound="COCCOc1cc2nccc(Oc3ccc(NC(=O)Nc4cc(C(C)(C)C)n[nH]4)c(Cl)c3)c2cc1NC(C)=O [Compound 66]" readout_units=nM measurement_qualifier== observed_value=7.54
